These data points were gathered from PubChem BioAssay (NCI).

Record form. Attribute: log10 of TGI. Fill in for each entry.
Test system: SK-MEL-5 melanoma
Test: NCI tumour cell line growth inhibition, 48 h
Scale: decimal log of TGI, TGI in µM.

Look over these answered cases.
COMPOUND: NC(=S)N/N=C\c1nccc2ccccc12
VALUE MEASURED: 0.57
--
COMPOUND: CC(=O)O[C@H]1[C@H](OC(=O)CC(C)(O)CC(=O)O)C[C@]2(C)C3=C(CCC2C1(C)C)[C@]1(C)CC[C@H]([C@H]2CC[C@H](C(C)(C)O)OC2O)[C@@]1(C)[C@@H](O)C3 (stereo not given in full)
VALUE MEASURED: 1.49
--
COMPOUND: O=[N+]([O-])c1ccc(N/N=C/c2ccc(OCCCCCCCCCCCO)cc2)c([N+](=O)[O-])c1
VALUE MEASURED: 0.67
--
COMPOUND: CCN(CC)c1ccc(C(=O)c2ccc(N(CC)CC)cc2)cc1
VALUE MEASURED: 1.10
--
COMPOUND: CC(C)(C)OC(=O)N1C(c2cccnc2)=CC[C@H]2C3CC=C(c4cccnc4)[C@@]3(C)CC[C@@H]21 (stereo not given in full)
VALUE MEASURED: 0.62
--
COMPOUND: COc1cc(-c2nc(SCCC(C)C)nc(Nc3ccc(S(N)(=O)=O)cc3)c2C#N)cc(OC)c1OC
VALUE MEASURED: 0.48
--
COMPOUND: O=C1C(=O)c2cccnc2-c2ncccc21
VALUE MEASURED: -0.10

Reported log10 of TGI for CCOC(=O)c1c2c(n3ccccc13)C(=O)c1ncccc1C2=O was 0.18

----------
Tested on: SK-MEL-5 melanoma
Assay: NCI tumour cell line growth inhibition, 48 h
MEASURED ATTRIBUTE: TGI

COMPOUND: CC(=O)OCC1OC(n2c(-c3ccc(C)cc3)cc(-c3ccccc3)c(C#N)c2=S)C(OC(C)=O)C(OC(C)=O)C1OC(C)=O (configuration not stated)
MEASURED ON: SK-MEL-5 melanoma
TGI: > 100 µM
--
COMPOUND: NC(N)=Nc1ccc(CC(N)C(=O)O)cc1 (configuration not stated)
MEASURED ON: SK-MEL-5 melanoma
TGI: > 12.5 µM
--
COMPOUND: COC(=O)Nc1nc2ccc(Br)cc2[nH]1
MEASURED ON: SK-MEL-5 melanoma
TGI: > 100 µM
--
COMPOUND: Cc1cnc(C(=O)NNc2nc3sc4c(c3c(=O)n2C)C(C)CCC4)cn1 (configuration not stated)
MEASURED ON: SK-MEL-5 melanoma
TGI: 1.72 µM
--
COMPOUND: O=C(OC[C@H]1O[C@H](OC(=O)c2cc(O)c(O)c(OC(=O)c3cc(O)c(O)c(O)c3)c2)[C@H](OC(=O)c2cc(O)c(O)c(OC(=O)c3cc(O)c(O)c(O)c3)c2)[C@@H](OC(=O)c2cc(O)c(O)c(OC(=O)c3cc(O)c(O)c(O)c3)c2)[C@@H]1OC(=O)c1cc(O)c(O)c(OC(=O)c2cc(O)c(O)c(O)c2)c1)c1cc(O)c(O)c(OC(=O)c2cc(O)c(O)c(O)c2)c1
MEASURED ON: SK-MEL-5 melanoma
TGI: 13.1 µM
--
COMPOUND: CC(=O)OCC1OC(n2c(-c3ccc(C)cc3)cc(-c3ccccc3)c(C#N)c2=O)C(OC(C)=O)C(OC(C)=O)C1OC(C)=O (configuration not stated)
MEASURED ON: SK-MEL-5 melanoma
TGI: > 100 µM

For O=C1C(=Cc2c(O)cc(O)cc2O)C(=O)c2ccccc21 the compound record lists TGI as > 100 µM
